These entries and their values trace back to PubChem BioAssay (NCI).

system: MDA-MB-231 breast; experiment: NCI tumour cell line growth inhibition, 48 h
We use 20 µM as the dividing line for TGI: on or above the line is y, below is n.

{"molecule": "O=c1oc2ccccc2c(O)c1C(c1ccc(-c2ccccc2)cc1)c1c(O)c2ccccc2oc1=O", "label_class": "y"}
{"molecule": "O=[N+]([O-])c1cc(-[n+]2cc([O-])on2)ccc1Cl", "label_class": "y"}
{"molecule": "COc1ccc(-c2cc(-c3ccc(Cl)cc3)nc(NCCCCNc3ccnc4cc(Cl)ccc34)n2)cc1", "label_class": "n"}
{"molecule": "Clc1cccc(CNc2c3ccccc3nc3ccccc23)c1", "label_class": "n"}
{"molecule": "CCN(CC)c1ccc(-c2cc(-c3cc(OC)c(OC)c(OC)c3)nc(N3CCC(O)CC3)c2C#N)cc1", "label_class": "n"}
{"molecule": "N=C(N)c1ccc(-c2ccc(-c3ccc4ccccc4c3)s2)s1", "label_class": "n"}
{"molecule": "COc1ccccc1/C=C1\\S/C(=N/Nc2nc(C)c(C(C)=O)s2)NC1=O", "label_class": "y"}
{"molecule": "NC(Cc1c[nH]c2ccc([N+](=O)[O-])cc12)C(=O)O (stereo unspecified)", "label_class": "y"}
{"molecule": "COc1ccc(C(=O)c2cc3c(N)c(C(=O)Nc4cccc(Br)c4C)sc3nc2C)cc1", "label_class": "n"}
{"molecule": "O=C(CC(C(=O)c1ccsc1)c1ccsc1)c1ccsc1 (stereo unspecified)", "label_class": "y"}
{"molecule": "CCN1C(=O)N(CC)C2C1NN=c1s/c(=C3\\C(=O)N(C4CCCC4)c4ccccc43)c(=O)n12 (stereo unspecified)", "label_class": "y"}
{"molecule": "COC(=O)c1c(O)ccc2c1c1c(n2Cc2ccccc2OC)C(=O)c2ccccc2C1=O", "label_class": "y"}
{"molecule": "COc1ccc(CCNC(=O)c2ccccc2C2c3ccc(OCc4ccccc4)cc3Oc3cc(OCc4ccccc4)ccc32)cc1OC", "label_class": "y"}
{"molecule": "COc1ccc2c(O)c(/C=C3\\N=Nc4ncccc43)oc2c1C[C@@H]1CCNC[C@H]1F", "label_class": "n"}
{"molecule": "N#Cc1nc(C#N)c(Sc2ccccc2)c(Sc2ccccc2)c1Sc1ccccc1", "label_class": "n"}
{"molecule": "CC/C(Cl)=N\\OC(=O)Nc1ccc(OC)c(C)c1", "label_class": "y"}
{"molecule": "CCNC1=C(NC(=O)c2ccccc2)C(=O)c2ccccc2C1=O", "label_class": "y"}
{"molecule": "Clc1ccc2c(c1)N(C1CCCN(Cc3ccccc3)C1)c1ccccc1S2 (stereo unspecified)", "label_class": "n"}
{"molecule": "O=C(Nc1cc(Cl)ccc1O)c1ccccc1Nc1ccnc(C(F)(F)F)c1", "label_class": "n"}
{"molecule": "Fc1ccc(-c2nn3ccccc3c2-c2ccncc2)cc1", "label_class": "y"}

====

tested on: T-47D breast; experiment: NCI tumour cell line growth inhibition, 48 h; in the data active = GI50 below about 0.43 µM; inactive = the rest
Outcome codes: active, inactive

{"compound": "O=C(Nc1cc(Cl)ccc1O)c1ccccc1Nc1ccnc(C(F)(F)F)c1", "label_class": "inactive"}
{"compound": "Cn1cc(C2=C(c3cn(CCCN)c4ccccc34)C(=O)NC2=O)c2ccccc21", "label_class": "inactive"}
{"compound": "O=C1C=C(OCC=C(C(F)(F)F)C(F)(F)F)c2ccccc2C1=O", "label_class": "inactive"}
{"compound": "N=C(N)c1ccc(-c2ccc(-c3ccc4ccccc4c3)s2)s1", "label_class": "inactive"}
{"compound": "COc1ccc(C2C(C#N)=C(N)Oc3c2sc2c(Br)cccc32)cc1 (stereo unspecified)", "label_class": "inactive"}
{"compound": "CS(=O)(=O)c1cccc(Nc2ncc3cc(-c4ccccc4Cl)ccc3n2)c1", "label_class": "inactive"}
{"compound": "C#C[C@@]1(O)[C@@H](CO)O[C@@H](n2cc(C(F)(F)F)c3c(N)ncnc32)[C@@H]1O", "label_class": "active"}
{"compound": "O=C1Nc2ccccc2/C1=C\\c1nc(-c2ccccc2F)n2ccccc12", "label_class": "inactive"}
{"compound": "CCCCCCCCCCNCCSS(=O)(=O)O", "label_class": "inactive"}
{"compound": "COc1ccc(C(=O)c2cc3c(N)c(C(=O)Nc4cccc(Br)c4C)sc3nc2C)cc1", "label_class": "inactive"}
{"compound": "CCN(CC)CCN1c2nc3ccccc3cc2Sc2cc3ccccc3nc21", "label_class": "inactive"}

====

tested on: SK-OV-3 ovarian; experiment: NCI tumour cell line growth inhibition, 48 h

{"compound": "COc1ccc(C2C(C#N)=C(N)Oc3c2sc2c(Br)cccc32)cc1 (centres undefined)", "tgt": "SK-OV-3 ovarian", "TGI": "19.9 µM"}
{"compound": "c1cc2nnc1SCCSCCSCCSc1ccc(nn1)SCCSCCSCCS2", "tgt": "SK-OV-3 ovarian", "TGI": "> 100 µM"}
{"compound": "COc1ccc(OC)c(NC(=O)C(=O)CC(=O)c2sc(-n3nc(-c4ccccc4)cc3-c3ccccc3)nc2C)c1", "tgt": "SK-OV-3 ovarian", "TGI": "> 100 µM"}
{"compound": "CCCCCCCCCCNCCSS(=O)(=O)O", "tgt": "SK-OV-3 ovarian", "TGI": "7.58 µM"}
{"compound": "CCCCCCCCCCCCCCCC(=O)OCCOCCOCCOCCOCCOC(=O)CCCCCCCCCCCCCCC", "tgt": "SK-OV-3 ovarian", "TGI": "> 100 µM"}
{"compound": "Cc1ccc(S(=O)(=O)N/N=C2\\CCCCCCCCCCC2CN(C)C)cc1 (centres undefined)", "tgt": "SK-OV-3 ovarian", "TGI": "36 µM"}
{"compound": "CC[C@H](C)[C@H](NC(=O)[C@H]1CCCCN1C)C(=O)N(C)[C@H](C[C@@H](OC(C)=O)c1cccc(C(=O)N[C@@H](Cc2ccccc2)C[C@H](C)C(=O)O)n1)C(C)C", "tgt": "SK-OV-3 ovarian", "TGI": "> 25 µM"}
{"compound": "COc1ccccc1/C=C1\\S/C(=N/Nc2nc(C)c(C(C)=O)s2)NC1=O", "tgt": "SK-OV-3 ovarian", "TGI": "> 100 µM"}
{"compound": "Oc1ccc2ccccc2c1C=NCc1c(O)ccc2ccccc12", "tgt": "SK-OV-3 ovarian", "TGI": "> 100 µM"}

====

test system: KM12 colon; assay: NCI tumour cell line growth inhibition, 48 h
attribute_measured: TGI

{"compound": "N#CC1(C#N)C=CC(=C2OCC3CCCN23)C=C1 (centres undefined)", "tgt": "KM12 colon", "attribute_measured": "TGI", "reported_value": "> 100 µM"}
{"compound": "CCCCCCCCCCCCN=C(N)c1ccc(N2CCN(c3ccc(C(N)=NCCCCCCCCCCCC)cc3)CC2)cc1", "tgt": "KM12 colon", "attribute_measured": "TGI", "reported_value": "25.1 µM"}
{"compound": "COc1ccc(N=Nc2ccc3oc(=O)c(C(=O)Nc4ccccc4C)cc3c2)cc1", "tgt": "KM12 colon", "attribute_measured": "TGI", "reported_value": "> 10 µM"}
{"compound": "CC(NC1=CC(=O)c2cccnc2C1=O)C(O)c1ccccc1 (centres undefined)", "tgt": "KM12 colon", "attribute_measured": "TGI", "reported_value": "27.8 µM"}
{"compound": "COc1cc2c(oc(=O)c3cc4cc([Si](C)(C)C)oc4c(OC)c32)c2cccc(O)c12", "tgt": "KM12 colon", "attribute_measured": "TGI", "reported_value": "> 100 µM"}
{"compound": "CN(C)CCOc1cc2c(c3ccccc13)-c1ccccc1C2O (centres undefined)", "tgt": "KM12 colon", "attribute_measured": "TGI", "reported_value": "29.5 µM"}
{"compound": "O=C(N=c1nc(NC(=O)c2ccccc2)ss1)c1ccccc1", "tgt": "KM12 colon", "attribute_measured": "TGI", "reported_value": "> 100 µM"}
{"compound": "CCC(C)C1=C(O)[N+]2([O-])Oc3ccc(C4=C(O)C(=O)C(c5ccc(O)cc5)=C(O)C4=O)cc3OC2(C(C)CC)C(=O)N1O (centres undefined)", "tgt": "KM12 colon", "attribute_measured": "TGI", "reported_value": "> 100 µM"}
{"compound": "CN(/N=C/c1ccccn1)C1=NCCCN1", "tgt": "KM12 colon", "attribute_measured": "TGI", "reported_value": "> 100 µM"}
{"compound": "COc1ccc2c(O)c(/C=C3\\N=Nc4ncccc43)oc2c1C[C@@H]1CCNC[C@H]1F", "tgt": "KM12 colon", "attribute_measured": "TGI", "reported_value": "1.4 µM"}
{"compound": "COC(=O)c1c(C)c2c(c(C)c1C(=O)OC)-c1c(C)ccc3ccc(C)c-2c13", "tgt": "KM12 colon", "attribute_measured": "TGI", "reported_value": "> 100 µM"}
{"compound": "CCc1c(CNC2=NCCN2)c(CC)c(CNC2=NCCN2)c(CC)c1CNC1=NCCN1", "tgt": "KM12 colon", "attribute_measured": "TGI", "reported_value": "> 100 µM"}
{"compound": "c1ccc2c(c1)Cc1c(Cc3csc4ccccc34)ccc3cccc-2c13", "tgt": "KM12 colon", "attribute_measured": "TGI", "reported_value": "> 100 µM"}
{"compound": "NC(CCP(=O)(O)O)C(=O)O (centres undefined)", "tgt": "KM12 colon", "attribute_measured": "TGI", "reported_value": "> 100 µM"}
{"compound": "Oc1ccc2ccccc2c1C=NCc1c(O)ccc2ccccc12", "tgt": "KM12 colon", "attribute_measured": "TGI", "reported_value": "> 100 µM"}
{"compound": "CCOC(=O)OC1C(Br)C2CCC1(C)C2(C)C (centres undefined)", "tgt": "KM12 colon", "attribute_measured": "TGI", "reported_value": "28.4 µM"}
{"compound": "CCNC1=C(NC(=O)c2ccccc2)C(=O)c2ccccc2C1=O", "tgt": "KM12 colon", "attribute_measured": "TGI", "reported_value": "> 100 µM"}
{"compound": "CCOC(=O)C1C(c2ccc(OC)cc2)c2c([nH][nH]c2=O)CC1(C)O (centres undefined)", "tgt": "KM12 colon", "attribute_measured": "TGI", "reported_value": "> 100 µM"}
{"compound": "CC(=O)/C(Br)=C/c1ccc(Br)o1", "tgt": "KM12 colon", "attribute_measured": "TGI", "reported_value": "25.9 µM"}
{"compound": "COc1cc2cc3c4c(cc(OC)c(OC)c4c2cc1OC)CCN3C", "tgt": "KM12 colon", "attribute_measured": "TGI", "reported_value": "> 50 µM"}
{"compound": "O=C(CCC(=O)Nc1cccc(C(F)(F)F)c1)CC(=O)c1ccc2ccccc2c1", "tgt": "KM12 colon", "attribute_measured": "TGI", "reported_value": "> 100 µM"}
{"compound": "COc1c(I)c(OC)c2c(c1I)O[C@@H]1OCC[C@H]21", "tgt": "KM12 colon", "attribute_measured": "TGI", "reported_value": "82.6 µM"}
{"compound": "CCOC(=O)c1[nH]c2cc(OC)c(OC)cc2c1CN(C)C", "tgt": "KM12 colon", "attribute_measured": "TGI", "reported_value": "> 100 µM"}
{"compound": "COc1ccc(N2C(=O)/C(=C\\c3ccccc3)SC2c2cc(OC)c(OC)c(OC)c2)cc1 (centres undefined)", "tgt": "KM12 colon", "attribute_measured": "TGI", "reported_value": "> 100 µM"}
{"compound": "CC(C)OC(=O)[C@H]1ON2O[C@H](O[C@@H]3CCCC[C@H]3c3ccccc3)C([Si](C)(C)c3ccccc3)[C@H]3OC(=O)[C@@H]1C32 (some centres undefined)", "tgt": "KM12 colon", "attribute_measured": "TGI", "reported_value": "> 100 µM"}
{"compound": "O=C1Nc2ccccc2/C1=C\\c1nc(-c2ccccc2F)n2ccccc12", "tgt": "KM12 colon", "attribute_measured": "TGI", "reported_value": "14.4 µM"}
{"compound": "CN(C)Cc1ccc(NC(=O)c2cncc(C#Cc3cnc(N)c4ncccc34)c2)cc1F", "tgt": "KM12 colon", "attribute_measured": "TGI", "reported_value": "3.16 µM"}
{"compound": "CC(=O)OCC1OC(NC(=O)N(CCCl)N=O)C(OC(C)=O)C(OC(C)=O)C1OC(C)=O (centres undefined)", "tgt": "KM12 colon", "attribute_measured": "TGI", "reported_value": "> 100 µM"}
{"compound": "O=C(N/C(=C\\c1ccccc1O)c1nc2ccccc2[nH]1)c1ccccc1", "tgt": "KM12 colon", "attribute_measured": "TGI", "reported_value": "> 100 µM"}
